Reference source: the supplement of paper PMC6555819

test system: PPARg:RXRa DBDmut IVT, anti-RXR (DBD mutation: RXRa K156A/R161A, NR concentration 270 nM, RXRa partner concentration 90 nM); assay: PBM binding z-score (relative to random genomic background probes); higher = stronger binding; sequences stand for … in GC…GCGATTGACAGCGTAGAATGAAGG
parameter: PBM binding z-score
The response must contain the number and no unit.

Using known records, supply PBM binding z-score for TCTATTTGGTCAAAGGTCACACACTCGAAATGCG
3.39

Using the record for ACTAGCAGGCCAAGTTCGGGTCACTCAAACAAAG , state its measured PBM binding z-score.
0.756

Please indicate PBM binding z-score recorded for AGTCAAAGTTCAGGAGGAGGTAACGTAAAGCACG
-0.11

Give a short answer stating reported PBM binding z-score for TAGCCTAGGTCAGATCGGGCCAGTATGCGCTATA .
0.347

----------
tested on: LXRb:RXRa (NR concentration 270 nM, RXRa partner concentration 90 nM); test: PBM binding z-score (relative to random genomic background probes); higher = stronger binding; sequences stand for … in GC…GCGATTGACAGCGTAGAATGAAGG
The reader will find reported PBM binding z-score values listed item by item below.
Form field (numeric): enter value without unit.

[[record]]
monomersequence = "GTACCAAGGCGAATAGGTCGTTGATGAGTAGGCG"
targetentity = "LXRb:RXRa (NR concentration 270 nM, RXRa partner concentration 90 nM)"
reading = -0.382


Please turn your attention to the following entry.
Annotate the sequence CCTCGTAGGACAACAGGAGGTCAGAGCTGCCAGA with its measured PBM binding z-score.
1.57

----------
The entries below are paired with their reported PBM binding z-score.
system: RARb:RXRa (NR concentration 270 nM, RXRa partner concentration 90 nM); assay: PBM binding z-score (relative to random genomic background probes); higher = stronger binding; sequences stand for … in GC…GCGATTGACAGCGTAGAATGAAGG
Write the value as a bare number.

Consider the reported PBM binding z-score for these sequences:
[[record]]
monomersequence = "ATAAGTAGGTTACATCCGGGTCATTCAGGCTATG"
reading = 2.26

[[record]]
monomersequence = "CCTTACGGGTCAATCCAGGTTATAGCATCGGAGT"
reading = 3.44

[[record]]
monomersequence = "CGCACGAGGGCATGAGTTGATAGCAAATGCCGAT"
reading = 2.09


State its PBM binding z-score: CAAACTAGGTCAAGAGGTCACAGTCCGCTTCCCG
5.67

Please give the documented PBM binding z-score of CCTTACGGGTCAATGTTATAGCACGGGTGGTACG
3.57

For CATCCTAGGTCAGGGCCAGTATAGGAGGAACGTT , write its PBM binding z-score.
3.65

Please look at this sequence and report its PBM binding z-score: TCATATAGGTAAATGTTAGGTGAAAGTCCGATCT
0.728

Dear colleague, please send me the reported PBM binding z-score for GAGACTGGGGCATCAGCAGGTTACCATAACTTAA when you can.
1.09

Tell me its PBM binding z-score given TAGTCTAGGTCATTCAGGGGCCAGTATAGAAAGC as the entry.
3.73

For the sequence GGAACGCGGGCAAAGTTGATAGCATCTGTCGACG , give its measured PBM binding z-score value.
0.414

Please list PBM binding z-score recorded for the sequence TCTAGTTGGTCACGGAGGTCACACTCGACGGGTA
3.91

In one line, give reported PBM binding z-score of the entry CGTGCAAGGTCATAGGAGGTCAGTGAAGACAGAT .
5.41

Please look at this sequence and report its PBM binding z-score: ATACCAGGGTGATCGTGAGGTCGTTGATACTAAC
1.23

Check the records and state PBM binding z-score for ATCTCTACGTAAAGATAGTTCAGTGAATGCAAAT
0.474

Item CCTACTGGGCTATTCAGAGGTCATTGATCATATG : provide PBM binding z-score
2.79

// Input: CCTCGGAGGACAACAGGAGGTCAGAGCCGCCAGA . Output its PBM binding z-score only.
2.92

----------
tested on: PPARg DBDmut:RXRa IVT, anti-PPARg (DBD mutation: PPARg1 K132A/R137A, NR concentration 270 nM, RXRa partner concentration 90 nM); test: PBM binding z-score (relative to random genomic background probes); higher = stronger binding; sequences stand for … in GC…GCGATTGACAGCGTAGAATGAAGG
Decision: PBM binding z-score >= 0.2 yields true (1), all other cases yield false (0).

Look over these answered cases.
[[record]]
monomersequence = "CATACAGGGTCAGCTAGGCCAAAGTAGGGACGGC"
category = "true (1)"

[[record]]
monomersequence = "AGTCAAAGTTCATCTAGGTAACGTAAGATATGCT"
category = "true (1)"

[[record]]
monomersequence = "CAAACTAGGTCAAGAGGTCATAGTCCGCTTCCCG"
category = "true (1)"

[[record]]
monomersequence = "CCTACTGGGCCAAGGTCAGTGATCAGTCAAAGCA"
category = "true (1)"

[[record]]
monomersequence = "TAGCCTAGTTCATTGGGCCAGTATAGTACGCATC"
category = "false (0)"


Does the sequence CAAACTAGGTCAAGGACAGTGAATCTCCGCACGC have recorded PBM binding z-score that is 0.2 or more?
true (1)

Is reported PBM binding z-score greater than or equal to 0.2 here: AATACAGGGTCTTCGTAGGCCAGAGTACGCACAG
true (1)

State whether the measured PBM binding z-score reaches 0.2, counting equality as reaching it, for CGAACTAGGTCATTGACAGGACAGTGAATAGTAA
true (1)

Decide: PBM binding z-score of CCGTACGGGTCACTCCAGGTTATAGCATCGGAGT >= 0.2?
false (0)

Answer whether PBM binding z-score of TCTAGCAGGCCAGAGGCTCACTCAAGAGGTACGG is greater than or equal to 0.2.
false (0)

Check if PBM binding z-score >= 0.2 (inclusive). Item: GCTAGCAGGCCAATTGGGTCACTCAATGACGGGC
false (0)

// inclusive: PBM binding z-score at least 0.2? input: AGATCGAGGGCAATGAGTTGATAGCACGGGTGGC
false (0)

Is the recorded value of PBM binding z-score equal to or greater than 0.2 for this sequence? TGAATGAGGGTATAAGATCAGGGAACGTTGCAAA
true (1)

Hi, just wondering whether CGTCCAAGGTCATAGGAGGACAGTGAAGACAGAT shows PBM binding z-score of 0.2 or higher.
true (1)

State whether the measured PBM binding z-score reaches 0.2, counting equality as reaching it, for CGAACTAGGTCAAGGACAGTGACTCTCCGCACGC
true (1)

Please indicate if the recorded PBM binding z-score for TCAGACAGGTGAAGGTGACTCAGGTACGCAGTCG meets or exceeds 0.2.
true (1)

Is the recorded value of PBM binding z-score equal to or greater than 0.2 for this sequence? TCATATAGGTAAACAGGTGAAAGTCCGTAAGTTA
true (1)

Exam item: decide whether the reported PBM binding z-score for GCTGCTAGGTCAGGTTGGTCCGCTAACGGGTACG is at least 0.2.
false (0)

# bool: PBM binding z-score of GCTCGGACGACAAGGTCAGAGCTTTGTCCGTAGA >= 0.2
false (0)

Would you say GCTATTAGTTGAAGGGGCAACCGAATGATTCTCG shows PBM binding z-score at minimum 0.2?
false (0)

Please check the record GCATATATGTAATACAAGGTGAAAGTCCGATTGT and state if its PBM binding z-score is at or above 0.2.
true (1)

Say whether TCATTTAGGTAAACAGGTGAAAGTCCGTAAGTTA shows PBM binding z-score of 0.2 or more.
true (1)

Reported PBM binding z-score reaches at least 0.2 for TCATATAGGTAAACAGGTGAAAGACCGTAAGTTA ?
true (1)

Form field: PBM binding z-score at least 0.2? Entry: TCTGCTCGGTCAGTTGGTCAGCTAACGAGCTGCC
false (0)

Could you tell me if the measured PBM binding z-score of TCTAGTTGGCCAAAGGTCACACACTCGAAATGCG reaches 0.2 or more?
true (1)

Decide: is the reported value of PBM binding z-score for GCTTGTAGATCAAGGTTCAGAAAGACTAAGCTAA equal to or greater than 0.2?
true (1)

Exam item: decide whether the reported PBM binding z-score for CCTTACGGGTCAAGGTGATAGCACGGGTGGTACG is at least 0.2.
false (0)

----------
system: PPARg DBDmut:RXRa IVT, anti-PPARg (DBD mutation: PPARg1 K132A/R137A, NR concentration 270 nM, RXRa partner concentration 90 nM); test: PBM binding z-score (relative to random genomic background probes); higher = stronger binding; sequences stand for … in GC…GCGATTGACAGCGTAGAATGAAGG
parameter: PBM binding z-score
Respond with the number and no other words.

[[record]]
monomersequence = "CCTATTGGTTGACCATAAGGGCAACCGAAGCTCG"
parameter = "PBM binding z-score"
reading = -0.489


State its PBM binding z-score for this sequence: TAGCCTAGGTCATTGGGGCAGTATAGTACGCATC
0.832

Consider the sequence GATACAGGGTCAGCTAGAGGCCATAGTATGGAAA . State its measured PBM binding z-score.
0.47

Please report PBM binding z-score for the following sequence: CCTAGTTGGTTAAGGTCACACACGCTATAGGTAC
1.48
